# System: Plasmodium falciparum
# protocol_description: Antiplasmodial activity against chloroquine-resistant blood-stage Plasmodium falciparum W2 after 48 hrs by flow cytometric analysis
# Format: functional, organism-based
# details: W2, 48 h
result_type: IC50

// known answers, use as guide
[
  {
    "smiles_code": "Cc1ccc(/C=C/C(=O)Nc2ccnc3cc(Cl)ccc23)cc1",
    "tested_system": "Plasmodium falciparum",
    "IC50": "> 10 µM"
  },
  {
    "smiles_code": "O=C(/C=C/c1ccc([N+](=O)[O-])cc1)Nc1ccnc2cc(Cl)ccc12",
    "tested_system": "Plasmodium falciparum",
    "IC50": "> 10 µM"
  }
]

Then this compound:
Challenge: Bench note: what IC50 did `O=C(/C=C/c1cccc([N+](=O)[O-])c1)Nc1ccnc2cc(Cl)ccc12` show?
Response given: > 10 µM

----------
# System: Heme
# protocol_description: Inhibition of heme polymerization at 1 mM after 48 hrs by spectrophotometry relative to chloroquine
inhibition values for the molecules below.

// known answers, use as guide
[
  {
    "smiles_code": "Cc1ccc(/C=C/C(=O)N[C@H](CC(C)C)C(=O)N[C@H](CCc2ccccc2)C(=O)Nc2ccnc3cc(Cl)ccc23)cc1",
    "inhibition": "> 75%"
  },
  {
    "smiles_code": "CC(C)C[C@@H](NC(=O)/C=C/c1ccc(F)cc1)C(=O)N[C@H](CCc1ccccc1)C(=O)Nc1ccnc2cc(Cl)ccc12",
    "inhibition": "< 50%"
  },
  {
    "smiles_code": "CC(C)C[C@@H](NC(=O)/C=C/c1ccc(Cl)cc1)C(=O)N[C@H](CCc1ccccc1)C(=O)Nc1ccnc2cc(Cl)ccc12",
    "inhibition": "< 50%"
  },
  {
    "smiles_code": "CC(C)C[C@@H](NC(=O)/C=C/c1ccc([N+](=O)[O-])cc1)C(=O)N[C@H](CCc1ccccc1)C(=O)Nc1ccnc2cc(Cl)ccc12",
    "inhibition": "> 75%"
  },
  {
    "smiles_code": "CC(C)C[C@@H](NC(=O)/C=C/c1ccccc1)C(=O)N[C@H](CCc1ccccc1)C(=O)Nc1ccnc2cc(Cl)ccc12",
    "inhibition": "< 50%"
  }
]

Challenge: Bench note: what inhibition did `COc1ccc(/C=C/C(=O)N[C@H](CC(C)C)C(=O)N[C@H](CCc2ccccc2)C(=O)Nc2ccnc3cc(Cl)ccc23)cc1` show?
Response given: 50%

Challenge: Bench note: what inhibition did `CC(C)C[C@@H](NC(=O)/C=C/c1cccc([N+](=O)[O-])c1)C(=O)N[C@H](CCc1ccccc1)C(=O)Nc1ccnc2cc(Cl)ccc12` show?
Response given: < 50%
